Assay: in vivo
Details: mouse, 0.01 mg/kg
measured_metric: concentration at 0.5 h (nM)

• CNCc1ccc(-c2cnc3c(c2)C[C@@]2(CN4CCC2CC4)O3)s1 [Example E1] = 0.08

---

Assay: in vivo
Details: mouse, po, 1 mg/kg
measured_metric: Cmax

• CNCc1ccc(-c2cnc3c(c2)C[C@@]2(CN4CCC2CC4)O3)s1 [Example E1] = 35 nM

---

Test: in vivo
Settings: mouse, 0.1 mg/kg
measured_metric: concentration at 0.33 h (nM)

- CNCc1ccc(-c2cnc3c(c2)C[C@@]2(CN4CCC2CC4)O3)s1 [Example E1]: 0.58

---

Experiment: in vivo
Conditions: mouse, 0.03 mg/kg
measured_metric: concentration at 10 h (nM)

- CNCc1ccc(-c2cnc3c(c2)C[C@@]2(CN4CCC2CC4)O3)s1 [Example E1]: 0.89

---

Test: in vivo
Settings: mouse, 0.001 mg/kg
measured_metric: concentration at 4 h

• CNCc1ccc(-c2cnc3c(c2)C[C@@]2(CN4CCC2CC4)O3)s1 [Example E1] = 0.0326 nM

---

Test: in vivo
Settings: mouse, 0.01 mg/kg
measured_metric: concentration at 4 h

• CNCc1ccc(-c2cnc3c(c2)C[C@@]2(CN4CCC2CC4)O3)s1 [Example E1] = 0.33 nM

---

Assay: in vivo
Conditions: mouse, 0.001 mg/kg
measured_metric: concentration at 10 h

• CNCc1ccc(-c2cnc3c(c2)C[C@@]2(CN4CCC2CC4)O3)s1 [Example E1] = 0.0297 nM

---

Test: in vivo
Settings: mouse, 0.1 mg/kg
measured_metric: concentration at 10 h

- CNCc1ccc(-c2cnc3c(c2)C[C@@]2(CN4CCC2CC4)O3)s1 [Example E1]: 2.97 nM

---

Assay: in vivo
Conditions: mouse, po, 0.03 mg/kg
measured_metric: Cmax (nM)

- CNCc1ccc(-c2cnc3c(c2)C[C@@]2(CN4CCC2CC4)O3)s1 [Example E1]: 1.05

---

Assay: in vivo
Details: mouse, po, 0.03 mg/kg
measured_metric: AUC (nM·h)

• CNCc1ccc(-c2cnc3c(c2)C[C@@]2(CN4CCC2CC4)O3)s1 [Example E1] = 8.81

---

Experiment: in vivo
Conditions: mouse, 0.1 mg/kg
measured_metric: concentration at 1 h

• CNCc1ccc(-c2cnc3c(c2)C[C@@]2(CN4CCC2CC4)O3)s1 [Example E1] = 1.56 nM

---

Assay: in vivo
Details: mouse, 0.001 mg/kg
measured_metric: concentration at 0.5 h (pM)

• CNCc1ccc(-c2cnc3c(c2)C[C@@]2(CN4CCC2CC4)O3)s1 [Example E1] = 8.1

---

Assay: in vivo
Settings: rat
measured_metric: Vd (L/kg)

- CNCc1ccc(-c2cnc3c(c2)C[C@@]2(CN4CCC2CC4)O3)s1 [Example E1]: 35.5

---

Experiment: in vivo
Details: mouse, po, 0.001 mg/kg
measured_metric: Cmax (nM)

- CNCc1ccc(-c2cnc3c(c2)C[C@@]2(CN4CCC2CC4)O3)s1 [Example E1]: 0.035

---

Assay: in vivo
Details: mouse, po, 0.1 mg/kg
measured_metric: Cmax (nM)

* CNCc1ccc(-c2cnc3c(c2)C[C@@]2(CN4CCC2CC4)O3)s1 [Example E1] | 3.49

---

Experiment: in vivo
Details: mouse, po, 1 mg/kg
measured_metric: concentration at 8 h (nM)

- CNCc1ccc(-c2cnc3c(c2)C[C@@]2(CN4CCC2CC4)O3)s1 [Example E1]: 34.9

---

Experiment: in vivo
Conditions: mouse, 0.1 mg/kg
measured_metric: concentration at 12 h (nM)

• CNCc1ccc(-c2cnc3c(c2)C[C@@]2(CN4CCC2CC4)O3)s1 [Example E1] = 2.84

---

Test: in vivo
Settings: mouse, 0.001 mg/kg
measured_metric: concentration at 24 h (nM)

* CNCc1ccc(-c2cnc3c(c2)C[C@@]2(CN4CCC2CC4)O3)s1 [Example E1] | 0.0172

---

Assay: in vivo
Details: mouse, po, 0.01 mg/kg
measured_metric: Cmax (nM)

- CNCc1ccc(-c2cnc3c(c2)C[C@@]2(CN4CCC2CC4)O3)s1 [Example E1]: 0.349

---

Assay: In vivo PK in dog (Vss, Fabs)
Details: dog in vivo
measured_metric: Vd (L/kg)

• CNCc1ccc(-c2cnc3c(c2)C[C@@]2(CN4CCC2CC4)O3)s1 [Example E1] = 27

---

Test: in vivo
Conditions: mouse, 0.1 mg/kg
measured_metric: concentration at 4 h

* CNCc1ccc(-c2cnc3c(c2)C[C@@]2(CN4CCC2CC4)O3)s1 [Example E1] | 3.26 nM

---

Experiment: in vivo
Settings: mouse, 0.001 mg/kg
measured_metric: concentration at 1 h (nM)

* CNCc1ccc(-c2cnc3c(c2)C[C@@]2(CN4CCC2CC4)O3)s1 [Example E1] | 0.0156

---

Assay: in vivo
Settings: mouse, 0.03 mg/kg
measured_metric: concentration at 0.33 h (nM)

• CNCc1ccc(-c2cnc3c(c2)C[C@@]2(CN4CCC2CC4)O3)s1 [Example E1] = 0.17

---

Assay: in vivo
Conditions: mouse, 0.01 mg/kg
measured_metric: concentration at 24 h (nM)

• CNCc1ccc(-c2cnc3c(c2)C[C@@]2(CN4CCC2CC4)O3)s1 [Example E1] = 0.17

---

Assay: in vivo
Settings: mouse, po, 0.001 mg/kg
measured_metric: AUC (nM·h)

* CNCc1ccc(-c2cnc3c(c2)C[C@@]2(CN4CCC2CC4)O3)s1 [Example E1] | 0.29

---

Assay: in vivo
Conditions: mouse, 0.03 mg/kg
measured_metric: concentration at 6 h (nM)

* CNCc1ccc(-c2cnc3c(c2)C[C@@]2(CN4CCC2CC4)O3)s1 [Example E1] | 1

---

Experiment: in vivo
Conditions: mouse, po, 1 mg/kg
measured_metric: concentration at 1 h (nM)

* CNCc1ccc(-c2cnc3c(c2)C[C@@]2(CN4CCC2CC4)O3)s1 [Example E1] | 15.6

---

Test: in vivo
Details: mouse, 0.01 mg/kg
measured_metric: concentration at 12 h (nM)

* CNCc1ccc(-c2cnc3c(c2)C[C@@]2(CN4CCC2CC4)O3)s1 [Example E1] | 0.28
